meta.source: patent US20210023223A1

- procedure-details: Lycopene in serum and cerumen after 20 mg lycopene for 1 month
- Format: in vivo, human
- assay-setup: both sexes, human, cerumen, oral; after 20 mg lycopene daily for one month; n = 18; read-out: Lycopene in cerumen
quantity: concentration at 1 month (ng/g)
Enter your answer as a number in ng/g; do not include the unit.

Request the reported concentration at 1 month associated with CC(C)=CCC/C(C)=C/C=C/C(C)=C/C=C/C(C)=C/C=C/C=C(C)/C=C/C=C(C)/C=C/C=C(\C)CCC=C(C)C
900

* * *

- procedure-details: Acid induced degradation at pH 2.5, gas chromatography
- Type: physicochemical
- assay-setup: DHA preparation with lycopene 1 mg per 1 g of DHA
Binning rule for recorded GC peak Area, %, After 2 hours at pH 2.5: low value: < 0.2%; medium value: ≥ 0.2% and < 1%; high value: ≥ 1%

molecule: CCCCCCCCCCCCCCCCCCCCCCCC(=O)O [Lignoceric]
assigned-label: low value

molecule: CCCC/C=C\CCCCCCCC(=O)O [Myristoleic]
assigned-label: low value

molecule: CCCCC/C=C\C/C=C\C/C=C\CCCCC(=O)O [gamma-Linolenic]
assigned-label: medium value

molecule: CCCCCCCCCCCCCCCCCC(=O)O [Stearic]
assigned-label: medium value

Which category does the recorded GC peak Area, %, After 2 hours at pH 2.5 put CCC=CCC=CCC=CCC=CCC=CC/C=C\CCC(=O)O [cis-4,7,10,13,16,19-Docosahexaenoic] in?
high value

Which category does the recorded GC peak Area, %, After 2 hours at pH 2.5 put CCCCCCCCCCCCCCCC(=O)O [Palmitic] in?
high value

Which category does the recorded GC peak Area, %, After 2 hours at pH 2.5 put CCCCCCCC/C=C/CCCCCCCC(=O)O [Elaidic] in?
medium value

Which category does the recorded GC peak Area, %, After 2 hours at pH 2.5 put CCCCCCCCCCCC(=O)O [Lauric] in?
low value

Which category does the recorded GC peak Area, %, After 2 hours at pH 2.5 put CCCCCC/C=C\CCCCCCCC(=O)O [Palmitoleic] in?
low value

Which category does the recorded GC peak Area, %, After 2 hours at pH 2.5 put CCCCCCCCCCCCCCC(=O)O [Pentadecanoic] in?
medium value

Which category does the recorded GC peak Area, %, After 2 hours at pH 2.5 put CCCCC/C=C\C/C=C\C/C=C\C/C=C\CCCC(=O)O [Arachidonic] in?
medium value

Which category does the recorded GC peak Area, %, After 2 hours at pH 2.5 put CCCCCCCCCCCCCC(=O)O [Myristic] in?
high value

* * *

- procedure-details: Acid induced degradation at pH 2.5, gas chromatography
- Type: physicochemical
- assay-setup: DHA preparation without lycopene
Assign class by GC peak Area, After 2 hours at pH 2.5: not lower than 7000 means Condition met; lower than 7000 means Condition not met.

compound: CCCCCCCC/C=C/CCCCCCCC(=O)O [Elaidic]
assigned-label: Condition not met

Kindly determine if GC peak Area, After 2 hours at pH 2.5 recorded for CCCCC/C=C\C/C=C\CCCCCCCC(=O)O [Linoleic] is above or exactly 7000.
Condition met

Kindly determine if GC peak Area, After 2 hours at pH 2.5 recorded for CCCCCCCCCCCCCCCCCC(=O)O [Stearic] is above or exactly 7000.
Condition not met

* * *

- procedure-details: Acid induced degradation at pH 2.5, gas chromatography
- Format: physicochemical
- assay-setup: DHA preparation with lycopene 1 mg per 1 g of DHA
quantity: GC peak Area, After 2 hours at pH 2.5

As a guide, the following entries are already answered.
compound: CCCCCCCCCCCCCCC(=O)O
GC peak Area, After 2 hours at pH 2.5: 2,843

compound: CCC=CCC=CCC=CCC=CCC=CC/C=C\CCC(=O)O [cis-4,7,10,13,16,19-Docosahexaenoic]
GC peak Area, After 2 hours at pH 2.5: 464,051

Request the reported GC peak Area, After 2 hours at pH 2.5 associated with CCCCCCCCCCCCCC(=O)O
69,816

* * *

- procedure-details: Size of lipid droplets of dairy butter, microscopy
- Type: physicochemical
- assay-setup: astaxanthin dose 7.0 per 30 g of butter
quantity: Size of butter lipid droplets, Mean (µm)
Enter your answer as a number in µm; do not include the unit.

Request the reported Size of butter lipid droplets, Mean associated with CC1=C(/C=C/C(C)=C/C=C/C(C)=C/C=C/C=C(C)/C=C/C=C(C)/C=C/C2=C(C)C(=O)[C@@H](O)CC2(C)C)C(C)(C)C[C@H](O)C1=O [Astaxanthin, astaxanthin]
25

* * *

- procedure-details: Acid induced degradation at pH 2.5, gas chromatography
- Assay type: physicochemical
- assay-setup: DHA preparation with lycopene 1 mg per 1 g of DHA
Entries annotated with measured GC peak Area, %, Baseline
Enter your answer as a number in %; do not include the unit.

molecule: CCCCC/C=C\C/C=C\C/C=C\CCCCC(=O)O [gamma-Linolenic]
unit-string: %
GC peak Area, %, Baseline: 0.27

Request the reported GC peak Area, %, Baseline associated with CCCC/C=C\CCCCCCCC(=O)O [Myristoleic]
0.17

Request the reported GC peak Area, %, Baseline associated with CCCCCC/C=C\CCCCCCCC(=O)O [Palmitoleic]
0.17

Request the reported GC peak Area, %, Baseline associated with CCCCCCCCCCCCCCCCCCCCCCCC(=O)O [Lignoceric]
0.17

Request the reported GC peak Area, %, Baseline associated with CCCCCCCCCCCCCC(=O)O [Myristic]
6.42

Request the reported GC peak Area, %, Baseline associated with CCCCCCCCCCCCCCC(=O)O [Pentadecanoic]
0.26

Request the reported GC peak Area, %, Baseline associated with CCCCC/C=C\C/C=C\CCCCCCCC(=O)O [Linoleic]
1.28

Request the reported GC peak Area, %, Baseline associated with CCCCCCCCCCCCCCCC(=O)O [Palmitic]
17.82

Request the reported GC peak Area, %, Baseline associated with CCCCC/C=C\C/C=C\C/C=C\C/C=C\CCCC(=O)O [Arachidonic]
0.82

Request the reported GC peak Area, %, Baseline associated with CCCCCCCCCCCCCCCCCC(=O)O [Stearic]
0.69

Request the reported GC peak Area, %, Baseline associated with CCC=CCC=CCC=CCC=CC/C=C\CCCC(=O)O [cis-5,8,11,14,17-eicosapentaenoic]
1.03

* * *

- procedure-details: Acid induced degradation at pH 2.5, gas chromatography
- Assay type: physicochemical
- assay-setup: DHA preparation with lycopene 1 mg per 1 g of DHA
Entries annotated with measured GC peak Area, After 2 hours at pH 2.5

As a guide, the following entries are already answered.
compound: CCCCC/C=C\C/C=C\C/C=C\CCCCC(=O)O [gamma-Linolenic]
value: 2,767
--
compound: CCC=CCC=CCC=CCC=CC/C=C\CCCC(=O)O [cis-5,8,11,14,17-eicosapentaenoic]
value: 10,759
--
compound: CCCCCCCCCCCC(=O)O [Lauric]
value: 1,605
--
compound: CCCC/C=C\CCCCCCCC(=O)O [Myristoleic]
value: 1,789
--
compound: CCCCCCCCCCCCCCCCCCCCCCCC(=O)O [Lignoceric]
value: 1,775
--
compound: CCCCCCCCCCCCCCCCCC(=O)O [Stearic]
value: 6,811
--
compound: CCCCCC/C=C\CCCCCCCC(=O)O [Palmitoleic]
value: 1,710
--
compound: CCCCCCCCCCCCCCCC(=O)O [Palmitic]
value: 186,438

Request the reported GC peak Area, After 2 hours at pH 2.5 associated with CCCCCCCC/C=C/CCCCCCCC(=O)O [Elaidic]
2,205

Request the reported GC peak Area, After 2 hours at pH 2.5 associated with CCCCC/C=C\C/C=C\CCCCCCCC(=O)O [Linoleic]
10,395

Request the reported GC peak Area, After 2 hours at pH 2.5 associated with CCCCC/C=C\C/C=C\C/C=C\C/C=C\CCCC(=O)O [Arachidonic]
8,565

* * *

- procedure-details: Lycopene in serum and cerumen after 20 mg lycopene for 1 month
- Format: in vivo, human
- assay-setup: both sexes, human, serum, oral; after 20 mg lycopene daily for one month; n = 18; read-out: Lycopene in serum
quantity: concentration at 1 month (µg/mL)
Enter your answer as a number in µg/mL; do not include the unit.

Request the reported concentration at 1 month associated with CC(C)=CCC/C(C)=C/C=C/C(C)=C/C=C/C(C)=C/C=C/C=C(C)/C=C/C=C(C)/C=C/C=C(\C)CCC=C(C)C
0.31

* * *

- procedure-details: Acid induced degradation at pH 2.5, gas chromatography
- Assay type: physicochemical
- assay-setup: DHA preparation without lycopene
Entries annotated with measured GC peak Area, Baseline

As a guide, the following entries are already answered.
compound: CCCCCCCCCCCCCC(=O)O [Myristic]
quantity: GC peak Area, Baseline
value: 73,096

compound: CCCCCC(=O)O [Caproic]
quantity: GC peak Area, Baseline
value: 13,975

compound: CCCCC/C=C\C/C=C\C/C=C\C/C=C\CCCC(=O)O [Arachidonic]
quantity: GC peak Area, Baseline
value: 8,907

compound: CCC=CCC=CCC=CCC=CCC=CC/C=C\CCC(=O)O [cis-4,7,10,13,16,19-Docosahexaenoic]
quantity: GC peak Area, Baseline
value: 456,572

compound: CCCCCCCCCCCCCCCCCC(=O)O [Stearic]
quantity: GC peak Area, Baseline
value: 7,051

Now look at this one.
Request the reported GC peak Area, Baseline associated with CCCCC/C=C\C/C=C\CCCCCCCC(=O)O [Linoleic]
9,494
